- experimental target: D2 dopaminergic receptors (Rattus norvegicus)
- Construct: The striatum is dissected rapidly and homogenized; from tissue; host or cells: striatum of male Wistar rats, membrane preparation
- Sequence (P61169 whole entry): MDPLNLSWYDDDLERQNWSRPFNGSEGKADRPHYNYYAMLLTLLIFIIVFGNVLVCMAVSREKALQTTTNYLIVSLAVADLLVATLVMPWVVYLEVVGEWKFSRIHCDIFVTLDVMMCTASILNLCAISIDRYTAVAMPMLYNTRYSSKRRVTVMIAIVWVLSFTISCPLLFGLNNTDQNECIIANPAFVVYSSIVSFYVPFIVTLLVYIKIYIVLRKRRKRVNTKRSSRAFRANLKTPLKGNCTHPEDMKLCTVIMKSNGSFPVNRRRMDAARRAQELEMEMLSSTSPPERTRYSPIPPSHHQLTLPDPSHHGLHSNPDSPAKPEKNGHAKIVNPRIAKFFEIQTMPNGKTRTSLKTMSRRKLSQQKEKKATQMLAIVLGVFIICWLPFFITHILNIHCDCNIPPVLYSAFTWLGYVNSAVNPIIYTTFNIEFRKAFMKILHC
- experimental protocol: Affinity test, D2 dopaminergic receptors: (3H)-spiperone displacement in rat striatum membranes
- Design: species or system male Wistar rats
- condition summary: test substance 100 μl (10^-6 M) in final volume 1 ml; 0.5 nM (3H)spiperone, 25° C., 60 min; vs 1 μM (+)butaclamol; read-out: Inhibition, % (binding of 3H-spiperone)
As shown below, each of these compounds has a reported inhibition value.
Number in %, nothing else.

Cc1ccc2c(c1)C(N1CCN(C)CC1)=Nc1cccnc1N2 ... 24.8

Lookup: What value of inhibition on D2 dopaminergic receptors (Rattus norvegicus) does CN1CCN(C2=Nc3cccnc3N(C=O)c3ccccc32)CC1 have?
Found: 22.8

Lookup: One more compound: CN1CCN(C2=Nc3ccccc3Sc3ccc(Cl)cc32)CC1 [Clothiapine, reference compound]
Found: 94.6

Lookup: One more compound: CN1CCN(C2=Nc3cccnc3Nc3ccc(Cl)cc32)CC1
Found: 31.5

Lookup: One more compound: CN1CCN(C2=Nc3cnccc3Sc3ccccc32)CC1
Found: 50.2
